These entries and their values trace back to PubChem BioAssay (NCI).

growth inhibition values, listed per item
- experiment: NCI Yeast Anticancer Drug Screen. Data for the mlh1 rad18 strain (AID 175)
- assay context: S. cerevisiae mlh1 rad18 strain growth inhibition; at 50.0 µM; hits give high values
This is part of a sample that, as a whole, favours compounds with a hit. Of some 79,000 tested, about 15% had one in any assay.
Kindly provide the numeric value in % only, without the unit symbol.

- CCCCCCCCCCCCCCCCOC[C@@H](COC(c1ccccc1)(c1ccccc1)c1ccccc1)O[P+](=S)OC (some centres not stated): 91.1
- COCC1OC(OC2C3=C(C(C)C)CCC3(C)/C=C3\C(CCC3(O)COC)C(C)C2O)C(O)C2OC3OC12OC3(C)C1CO1 (configuration not stated): -78
- CC(=O)Nc1ccc([As](O[As](c2ccc(NC(C)=O)cc2)c2ccc([N+](=O)[O-])cc2)c2ccc([N+](=O)[O-])cc2)cc1 (configuration not stated): 99
- N[C@H]1C2C3CC4C5CC(C42)C1(c1ccccc1)C53 (some centres not stated): -6
- CCOC(=O)C1Oc2ccc([N+](=O)[O-])c3c2C1(O)CCC3 (configuration not stated): -6.65
- ClC1CC2OC(Cl)CC2O1 (configuration not stated): 1.15
- O=Cc1ccccc1O.O=Cc1ccccc1O.[O]=[Mo]=[O]: 2.45
- Cc1ccc(O)c(CN2CCN(Cc3cc(C)ccc3O)CC2)c1: 7.8

IN: Give a short answer stating reported growth inhibition for c1ccc2c(c1)sc1sc3ccccc3[n+]12 .
OUT: -23.4

IN: Give a short answer stating reported growth inhibition for Nc1ccccc1C(=O)O .
OUT: 3.8

IN: Give a short answer stating reported growth inhibition for CCCCCCN1C(C)C1C(C)C (configuration not stated) .
OUT: 1.6

IN: Give a short answer stating reported growth inhibition for CC1([N+](=O)[O-])COP(=O)(OP2(=O)OCC(C)([N+](=O)[O-])CO2)OC1 (configuration not stated) .
OUT: 20

* * *

- experiment: NCI Yeast Anticancer Drug Screen. Data for the sgs1 mgt1 strain (AID 161);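 also: 0% = growth of cultures given vehicle only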
- assay context: S. cerevisiae sgs1 mgt1 strain, at 50.0 µM (retest, dose inferred, filed as 5.0)
The panel holds about 79,000 compounds, 15% with a hit somewhere; the sample as a whole holds those more often. Calls of active or inactive are those of the source. Rule as the data show it: active = growth inhibition above about 70%; inactive = the rest.
// one of active, inactive, no free text

* CC(=O)c1cc(CN(CCCl)CCCl)c(O)c(CN(CCCl)CCCl)c1O | inactive
* CC1(CO)C(O)CCC2(C)C1CCC1CC3CC12CCC3(O)CO (stereo unspecified) | active
* CC(C)[S-].CC(C)[S-].[Pt+2].c1ccc([PH+](c2ccccc2)c2ccccc2)cc1.c1ccc([PH+](c2ccccc2)c2ccccc2)cc1 | active
* CC12C(=O)C=CCC1=CCC1C2CCC2(O)C(=O)OC3(C)C4CC5(C)C(COC16OC23C5C6=O)C(=O)O4 (stereo unspecified) | inactive
* N#CC(C#N)=Cc1c(O)ccc2ccccc12 | inactive
* [N-]=[N+]=Nc1c([N+](=O)[O-])c(=O)n2c3c(cccc13)CCC2 | active

IN: State the result this test recorded for O=P(Oc1ccccc1)(Oc1ccccc1)Oc1ccccc1Cl .
OUT: inactive

IN: State the result this test recorded for O=[As](O)(O)c1ccc(Cc2ccc([As](=O)(O)O)cc2)cc1 .
OUT: active

IN: State the result this test recorded for N#C[S-].[Ce+3].c1cnc2c(c1)ccc1cccnc12.c1cnc2c(c1)ccc1cccnc12.c1cnc2c(c1)ccc1cccnc12 .
OUT: active

* * *

growth inhibition values, listed per item
- experiment: NCI Yeast Anticancer Drug Screen. Data for the cln2 rad14 strain (AID 165);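 also: 0% = growth equal to vehicle treated cultures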
- assay context: S. cerevisiae cln2 rad14 strain, at 50.0 µM, hits give high values
The panel holds about 79,000 compounds, 15% with a hit somewhere; the sample as a whole holds those more often.
Kindly provide the numeric value in % only, without the unit symbol.

In the examples that follow, each entry is paired with its recorded growth inhibition.
• CCC(c1ccc(OC)cc1)C(N)c1ccc(OC)cc1 (stereo not drawn) = -10.5
• O=C(CCl)Nc1ccccc1Cl = 18.6
• O=C1C=C(N2CC2)C(=O)C=C1N1CC1 = 89.2
• CC1CCC2(OC1)OC1C(O)C3C4CCC5CC(OC6OC(CO)C(OC7OC(CO)C(O)C(OC8OCC(O)C(O)C8O)C7OC7OC(CO)C(O)C(OC8OC(CO)C(O)C(O)C8O)C7O)C(O)C6O)C(O)CC5(C)C4CCC3(C)C1C2C (stereo not drawn) = 92.3
• N=C(N)SCc1ccc(Cl)c(Cl)c1 (tested in a mixture with another compound) = -6.1

IN: Give a short answer stating reported growth inhibition for Cc1cc(N(CCCl)CCCl)ccc1CN1CCCN(Cc2ccc(N(CCCl)CCCl)cc2C)C1c1ccc(N(CCCl)CCCl)cc1 .
OUT: 21.4

IN: Give a short answer stating reported growth inhibition for COc1ccc(NN=O)nc1 .
OUT: -18.6

IN: Give a short answer stating reported growth inhibition for [O-][N+]12CCCCC1C1CC(C2)C2CCCC(c3ccccc3)N2C1 (stereo not drawn) .
OUT: -34.8

* * *

- experiment: NCI Yeast Anticancer Drug Screen. Data for the bub3 strain (AID 167)
- assay context: S. cerevisiae bub3 mutant strain, at 50.0 µM, hits give high values
The panel holds about 79,000 compounds, 15% with a hit somewhere; the sample as a whole holds those more often. The source made the active and inactive calls. No stated cut-off is given here; in the data, active means growth inhibition above about 70%; inactive means the rest.
recorded metric: growth inhibition

In the examples that follow, each entry is paired with its recorded growth inhibition.
- Cc1nccc2c1[nH]c1ccc(Br)cc12: 9.55% (inactive)
- CC1(C)N=C(N)N=C(N)N1c1cccc(CCC(=O)Nc2ccc[n+](Cc3ccc(S(=O)(=O)F)cc3)c2)c1: -9.55% (inactive)
- C[N+](C)(C)CC1CCCCCCCCCCC1=O (configuration not stated): -16.4% (inactive)
- C1CC2CCC(N3CCCC3)C(C1)C21OCCO1 (configuration not stated): 6.45% (inactive)
- CCCCOOC(=O)c1ccccc1C(=O)OOCCCC: 99.5% (active)

IN: Give a short answer stating reported growth inhibition for C[CH2][Sn]1([CH2]C)[O]C2C(OC)OC3COC(c4ccccc4)OC3C2[O]1 (configuration not stated) .
OUT: 71.8% (active)

IN: Give a short answer stating reported growth inhibition for COc1ccc2[nH]cc(CCN)c2c1 .
OUT: 3.6% (inactive)

* * *

- experiment: NCI Yeast Anticancer Drug Screen. Data for the sgs1 mgt1 strain (AID 161);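 also: 0% = growth of cultures given vehicle only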
- assay context: S. cerevisiae sgs1 mgt1 strain, at 50.0 µM, hits give high values
Compounds without any hit were thinned out: in the full panel of roughly 79,000, 15% have a hit.
recorded metric: growth inhibition (%)
Kindly provide the numeric value in % only, without the unit symbol.

In the examples that follow, each entry is paired with its recorded growth inhibition.
- CCOP(O)(=S)OCC.[Yb]: -1.1
- O=CNNC(=O)C(Cl)Cl: -10.1
- CC1(C)N=C(N)N=C(N)N1c1ccc(Cl)c(CCCCc2ccc(S(=O)(=O)F)cc2)c1: 99.2
- [N-]=[N+]=Nc1cc(=O)oc2ccccc12: -8.25
- CN=C(N)N/N=C(\C)c1ccc2sc3ccc(/C(C)=N/NC(N)=NC)cc3c2c1: 13
- O=C(O)CCCC1CCCCC1.[Ni]: -2.1
- CC(N)C(O)c1ccc(O)cc1 (stereo not given): -21.1
- O=[N+]([O-])c1ccc(/C=C/C=C\c2ccc(S(=O)(=O)F)cc2Cl)cc1: 16

IN: Give a short answer stating reported growth inhibition for CCCCCCCC(=O)O.[Pb] .
OUT: 3

IN: Give a short answer stating reported growth inhibition for CC([CH2][Hg][Cl])c1ccccc1 (stereo not given) .
OUT: 99.6

IN: Give a short answer stating reported growth inhibition for O=[P+](O)O[P+](=O)O.O=[P+](O)O[P+](=O)O.O=[P+](O)O[P+](=O)O.O=[P+](O)O[P+](=O)O.[Cl][Pt].[Cl][Pt] .
OUT: 26.2

IN: Give a short answer stating reported growth inhibition for CCN(CC)CCN1C(=O)NC(=O)C(CC)(c2ccccc2)C1=O (stereo not given) .
OUT: -6

IN: Give a short answer stating reported growth inhibition for COc1ccc(NN=O)nc1 .
OUT: -20.9

* * *

- experiment: NCI Yeast Anticancer Drug Screen. Data for the mec2-1 strain (AID 157)
- assay context: S. cerevisiae mec2-1 strain, at 5.0 µM (retest, dose inferred, filed as 0.5), hits give high values
Compounds without any hit were thinned out: in the full panel of roughly 79,000, 15% have a hit.
recorded metric: growth inhibition (%)
Kindly provide the numeric value in % only, without the unit symbol.

• CC1CCCC[N-]1.CC1CCCC[N-]1.N#C[S-].N#C[S-].[Cd] (stereo unspecified) = 9
• COc1cc(N(CC(C)Br)CC(C)Br)ccc1N=Nc1ccccc1C(=O)O (stereo unspecified) = 26
• CC[S+](C)c1ccc(-c2c3nc(c(-c4ccc([S+](C)CC)cc4)c4ccc([nH]4)c(-c4ccc([S+](C)CC)cc4)c4nc(c(-c5ccc([S+](C)CC)cc5)c5ccc2[nH]5)C=C4)C=C3)cc1 (stereo unspecified) = 98
• C[n+]1c(/C=C/c2ccc(O)c3ccccc23)[se]c2ccccc21 = -13
• O=C(O)C(O)(c1ccc(-c2ccccc2)cc1)c1ccc(-c2ccccc2)cc1 = 13

Read the next record carefully.
IN: Give a short answer stating reported growth inhibition for NC(=O)c1cc([N+](=O)[O-])c(Cl)c([N+](=O)[O-])c1Cl .
OUT: 41
